Experiment: chemical genetic growth profiling, strain panel (AID 1159580);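 further: tested at 20 µM; growth read once vehicle control cultures reached saturation at 30 °C; 1 = growth at the plate median or of vehicle wells; lower values mean less growth of the strain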
Details: S. cerevisiae deletion strains, growth OD, locus YDR159W, strain sac3, hits give low values
The campaign covered roughly 5,500 compounds. About 2,000 (36%) were called active. About 18% were inconclusive and are not listed. Some of the results follow.

- compound: "N[C@H](Cc1cc(I)c(Oc2ccc(O)c(I)c2)c(I)c1)C(=O)O"
  normalized growth: 0.978
- compound: "C=C1C2CC[C@@]3(C)[C@H](c4ccoc4)OC(=O)C[C@]13O[C@H]1CC(O)C(C)(C)C(CC(=O)OC)[C@@]21C (some centres undefined)"
  normalized growth: 0.936
- compound: "C=C1[C@H]2CC[C@@]3(C)[C@H](c4ccoc4)OC(=O)C[C@]13O[C@H]1C[C@H](O)C(C)(C)[C@H](CC(=O)OC)[C@]12C"
  normalized growth: 1.04
- compound: "CCCCCC1C(=O)CCC1CC(=O)O (centres undefined)"
  normalized growth: 0.997
- compound: "C[C@@H]1O[C@@H](O[C@H]2C[C@@H](O)[C@]3(CO)C4C(CC[C@]3(O)C2)[C@@]2(O)CC[C@H](C3=CC(=O)OC3)[C@@]2(C)C[C@H]4O)[C@H](O)[C@H](O)[C@H]1O (some centres undefined)"
  normalized growth: 1
- compound: "COc1c2ccoc2nc2c(OC)c(OCC(O)C(C)(C)O)ccc12 (centres undefined)"
  normalized growth: 1.01
- compound: "C[C@@H]1CC2C3C[C@H](F)C4=CC(=O)C=C[C@]4(C)[C@@]3(F)[C@@H](O)C[C@]2(C)[C@@]1(O)C(=O)COC(=O)C(C)(C)C (some centres undefined)"
  normalized growth: 0.991
- compound: "CN(C)CCOC(=O)COc1ccc(Cl)cc1"
  normalized growth: 0.944
- compound: "O=c1cc(-c2ccccc2)oc2c(O)c(O)ccc12"
  normalized growth: 0.971
- compound: "CCCCC[C@H](CC(=O)NO)C(=O)N[C@H](C(=O)N1CCC[C@H]1CO)C(C)C"
  normalized growth: 1.03
- compound: "CN(C)C(=O)Nc1ccc(Cl)c(Cl)c1"
  normalized growth: 0.989
- compound: "C[C@@H]1CC2C3CCC4=CC(=O)C=C[C@]4(C)[C@@]3(F)[C@@H](O)C[C@]2(C)[C@H]1C(=O)CO (some centres undefined)"
  normalized growth: 0.998
- compound: "O=[N+]([O-])c1cccc2cn[nH]c12"
  normalized growth: 0.991
- compound: "CN(C)CCOC(=O)C(c1ccccc1)C1(O)CCCC1 (centres undefined)"
  normalized growth: 1.01
- compound: "O=C(O)CCC(=O)Nc1ccc(S(=O)(=O)Nc2nccs2)cc1"
  normalized growth: 0.922
- compound: "CN(C)N=Nc1nc[nH]c1C(N)=O"
  normalized growth: 1.02
- compound: "O=c1cc(-c2ccc(O)cc2)oc2cc(O)ccc12"
  normalized growth: 0.866
- compound: "COC(=O)CCCOc1ccc(Cl)cc1Cl"
  normalized growth: 0.956
- compound: "CCCCCC1C(=O)CCC1CC(=O)OC (centres undefined)"
  normalized growth: 0.969
- compound: "N[C@H](Cc1ccccc1)C(=O)O"
  normalized growth: 0.935
- compound: "CN(C)CCC(c1ccc(Br)cc1)c1ccccn1 (centres undefined)"
  normalized growth: 0.962
- compound: "O=C(O)CCCOc1ccc(Cl)cc1Cl"
  normalized growth: 0.902
- compound: "NC(N)=O"
  normalized growth: 0.965
- compound: "O=[N+]([O-])c1cccc2c(Br)[nH]nc12"
  normalized growth: 1.07
